The measurements presented in this section are drawn from patent US20200297760A1.

target: HLA-A*11:01 (recombinant MHC class I molecule) (human); assay: REVEAL MHC-peptide binding assay, recombinant HLA-A*11:01; conditions: remark: other sources report otherwise
In this section, each of the binders is paired with its reported In Vitro Score (score, % of positive control peptide).
Kindly provide the number alone.

Please review the entries below; each comes with its answer.
WVQRGNKKL	10.7
VAFIIFWVK	109
IIFWVKRGL	32.4

Entry IFWVQRGRK — recorded In Vitro Score (score, % of positive control peptide) = 128

Entry IFWVKRGNK — recorded In Vitro Score (score, % of positive control peptide) = 45.9

Entry IIFWVKRGR — recorded In Vitro Score (score, % of positive control peptide) = 54.5

Entry AFIIFWVSR — recorded In Vitro Score (score, % of positive control peptide) = 54

Entry IFWVKRGHK — recorded In Vitro Score (score, % of positive control peptide) = 30.9
